Molecular target: T1, human SIRPαV2 extracellular domain + His-tag (CAA71403.1) (human, UniProt P78324 31-373)
T1 construct: also called hSIRPαV2; HuSIRPαV2
T1 sequence (P78324 other isoform, or with tags, fused parts or gaps): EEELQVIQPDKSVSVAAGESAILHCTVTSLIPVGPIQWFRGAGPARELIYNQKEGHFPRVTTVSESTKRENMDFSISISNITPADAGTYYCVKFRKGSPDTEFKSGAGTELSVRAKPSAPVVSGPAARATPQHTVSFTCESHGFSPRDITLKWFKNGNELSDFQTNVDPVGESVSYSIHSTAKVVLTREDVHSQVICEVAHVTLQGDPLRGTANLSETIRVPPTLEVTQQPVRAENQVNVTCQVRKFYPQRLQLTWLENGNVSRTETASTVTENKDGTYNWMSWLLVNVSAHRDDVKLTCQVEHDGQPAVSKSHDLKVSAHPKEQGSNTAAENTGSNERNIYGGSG
Assay: SPR, Ab captured, ECD-His analyte

| binder | Kd |
| --- | --- |
| Antibody E10 (antibody, human IgG1, kappa, L234A L235A, V domains shown) VH: QVQLQESGPGLVRPSETLSLTCTVSGGSIRNYYWSWIRQPPGKGLEWIGFIYYNGRTFYNPSLKSRVTISLDTSKNQFSLKMTSVTAADTAVYYCARVRAYSGIGLDGTDVWGQGTTVTVSS VL: DIVMTQSPLSLPVTPGEPASISCKSSQSLLYSNGYAYLDWYLQRPGQSPQLLIYLGSNRASGVPDRFSGSGSGTDFTLKISRVEAEDVGVYYCMQALQTPLTFGGGTKVEIKR | 1.2 nM |
